This collection of values is drawn from paper PMC8508980.

In this section we review reported activity at 10 µM values for a set of compounds.
# System: NCI-H522
# experiment notes: NCI 60 cell line screen
# Type: cell-based, human
# condition details: Homo sapiens; NCI-H522, Non-Small Cell Lung Cancer; read-out: Percent growth
API: value field is a number in %; no unit string.

Use these answered entries as a reference point.
O=S(=O)(NCCCNc1nccc(-n2cnc3ccccc32)n1)c1cccc2ccccc12 [12n] ... 70
O=S(=O)(NCCNc1nccc(-n2cnc3ccccc32)n1)c1ccc(F)cc1 [12b] ... 71.8
O=S(=O)(NCCCNc1nccc(-n2cnc3ccccc32)n1)c1ccc(C(F)(F)F)cc1 [12l] ... 66.9
O=S(=O)(NCCCNc1nccc(-n2cnc3ccccc32)n1)c1ccc(F)cc1 [12i] ... 68.5
Cc1ccc(S(=O)(=O)NCCNc2nccc(-n3cnc4ccccc43)n2)cc1 [12g] ... 64.6
O=S(=O)(NCCNc1nccc(-n2cnc3ccccc32)n1)c1ccccc1 [12a] ... 93.8
O=S(=O)(NCCNc1nccc(-n2cnc3ccccc32)n1)c1ccc(Cl)cc1 [12c] ... 92.1
O=S(=O)(NCCCNc1nccc(-n2cnc3ccccc32)n1)c1ccccc1 [12h] ... 82.7

Let us move to another entry and its activity at 10 µM.
Data request: Consider the compound O=S(=O)(NCCCNc1nccc(-n2cnc3ccccc32)n1)c1ccc(Br)cc1 [12k] tested on NCI-H522; state its activity at 10 µM.
Data returned: 75.5

---

# Test system: NCI-H522
# experiment notes: NCI 60 cell line screen
# Assay type: cell-based, human
# condition details: Homo sapiens; NCI-H522, Non-Small Cell Lung Cancer; read-out: Percent growth
Item-by-item account of activity at 10 µM
Numbers only here, please. The scale is %.

Example cases with answers are listed next.
COc1ccc(S(=O)(=O)NCCCNc2nccc(-n3cnc4ccccc43)n2)cc1 [12m] ... 81.1
O=S(=O)(NCCNc1nccc(-n2cnc3ccccc32)n1)c1ccc(Br)cc1 [12d] ... 87.2
O=S(=O)(NCCNc1nccc(-n2cnc3ccccc32)n1)c1ccc(C(F)(F)F)cc1 [12e] ... 38.2
COc1ccc(S(=O)(=O)NCCNc2nccc(-n3cnc4ccccc43)n2)cc1 [12f] ... 84.4

Attention now shifts to the item below.
Data request: Report activity at 10 µM, nothing else, for this compound: O=S(=O)(NCCCNc1nccc(-n2cnc3ccccc32)n1)c1ccc(Cl)cc1 [12j]
Data returned: 82.8

---

# measured target: BRAF (wild-type) (Homo sapiens, UniProt P15056)
# Sequence (P15056 whole entry): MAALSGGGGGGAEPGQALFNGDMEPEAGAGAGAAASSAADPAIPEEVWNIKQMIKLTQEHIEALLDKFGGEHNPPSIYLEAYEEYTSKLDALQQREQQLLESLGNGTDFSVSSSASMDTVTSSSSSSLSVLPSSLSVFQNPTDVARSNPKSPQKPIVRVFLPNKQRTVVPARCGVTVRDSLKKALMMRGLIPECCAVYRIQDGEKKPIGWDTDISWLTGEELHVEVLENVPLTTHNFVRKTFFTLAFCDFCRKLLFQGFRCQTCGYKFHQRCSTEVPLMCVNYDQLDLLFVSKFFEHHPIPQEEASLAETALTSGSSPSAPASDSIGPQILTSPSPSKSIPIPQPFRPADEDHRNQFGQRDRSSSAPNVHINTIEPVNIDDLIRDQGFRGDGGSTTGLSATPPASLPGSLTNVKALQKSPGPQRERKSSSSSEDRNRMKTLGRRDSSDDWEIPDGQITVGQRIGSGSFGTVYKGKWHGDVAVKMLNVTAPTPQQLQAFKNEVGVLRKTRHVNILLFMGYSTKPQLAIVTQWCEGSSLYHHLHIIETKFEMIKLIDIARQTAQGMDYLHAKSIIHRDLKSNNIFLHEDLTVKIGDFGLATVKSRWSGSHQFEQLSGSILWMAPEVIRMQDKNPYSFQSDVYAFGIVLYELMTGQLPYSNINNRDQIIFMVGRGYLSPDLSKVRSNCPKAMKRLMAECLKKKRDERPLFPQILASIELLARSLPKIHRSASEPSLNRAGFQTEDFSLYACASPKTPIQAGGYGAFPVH
Threshold-based label: IC50 under 2000 nM gives Satisfied, IC50 not under 2000 nM gives Not satisfied.

O=S(=O)(NCCNc1nccc(-n2cnc3ccccc32)n1)c1ccc(Cl)cc1 [12c] ... Satisfied
O=S(=O)(NCCCNc1nccc(-n2cnc3ccccc32)n1)c1ccc(F)cc1 [12i] ... Satisfied
O=S(=O)(NCCNc1nccc(-n2cnc3ccccc32)n1)c1ccc(F)cc1 [12b] ... Satisfied
O=S(=O)(NCCCNc1nccc(-n2cnc3ccccc32)n1)c1ccc(Br)cc1 [12k] ... Satisfied
Cc1ccc(S(=O)(=O)NCCNc2nccc(-n3cnc4ccccc43)n2)cc1 [12g] ... Satisfied
COc1ccc(S(=O)(=O)NCCCNc2nccc(-n3cnc4ccccc43)n2)cc1 [12m] ... Satisfied
O=S(=O)(NCCCNc1nccc(-n2cnc3ccccc32)n1)c1ccc(Cl)cc1 [12j] ... Satisfied
O=S(=O)(NCCCNc1nccc(-n2cnc3ccccc32)n1)c1ccc(C(F)(F)F)cc1 [12l] ... Satisfied
O=S(=O)(NCCNc1nccc(-n2cnc3ccccc32)n1)c1ccc(Br)cc1 [12d] ... Satisfied
O=S(=O)(NCCCNc1nccc(-n2cnc3ccccc32)n1)c1ccccc1 [12h] ... Not satisfied

Data request: # strict comparison: is reported IC50 < 2000 nM? input = O=S(=O)(NCCNc1nccc(-n2cnc3ccccc32)n1)c1ccc(C(F)(F)F)cc1 [12e]
Data returned: Satisfied

Data request: For O=S(=O)(NCCCNc1nccc(-n2cnc3ccccc32)n1)c1cccc2ccccc12 [12n] , is the recorded IC50 below the cut-off of 2000 nM?
Data returned: Not satisfied

Data request: Is IC50 strictly under 2000 nM for the entry O=S(=O)(NCCNc1nccc(-n2cnc3ccccc32)n1)c1ccccc1 [12a] ?
Data returned: Not satisfied

---

# System: SK-OV-3
# experiment notes: NCI 60 cell line screen
# Type: cell-based
# condition details: Homo sapiens; SK-OV-3, Ovarian Cancer; read-out: Percent growth
endpoint: activity at 10 µM (%)
Provide only the numeric value, understood in %.

COc1ccc(S(=O)(=O)NCCCNc2nccc(-n3cnc4ccccc43)n2)cc1 [12m] ... 96.2
O=S(=O)(NCCCNc1nccc(-n2cnc3ccccc32)n1)c1ccc(F)cc1 [12i] ... 85.2
Cc1ccc(S(=O)(=O)NCCNc2nccc(-n3cnc4ccccc43)n2)cc1 [12g] ... 79.5
O=S(=O)(NCCCNc1nccc(-n2cnc3ccccc32)n1)c1cccc2ccccc12 [12n] ... 92.5

Data request: Identify measured activity at 10 µM obtained with SK-OV-3 for O=S(=O)(NCCCNc1nccc(-n2cnc3ccccc32)n1)c1ccc(Br)cc1 [12k] .
Data returned: 109

---

# System: OVCAR-8
# experiment notes: NCI 60 cell line screen
# Type: cell-based
# condition details: Homo sapiens; OVCAR-8, Ovarian Cancer; read-out: Percent growth
# Experimental: Anticancer profiling over a panel of 60 cancer cell lines was carried out at the National Cancer Institute (NCI), Bethesda, Maryland, USA, https://dtp.cancer.gov/discovery_development/nci-60/methodology.htm (Last visit 22 September 2021), using the standard procedure (detailed procedure is located in the Supplementary Information page 50 s). NCI standard procedure for 60 cell lines assay […] Three dose response parameters are calculated for each experimental agent. […] (TGI) is calculated from Ti = Tz.
Returns label 1 if the recorded activity at 10 µM is greater than or equal to 90%, and label 0 otherwise.

A selection of reference data follows.
O=S(=O)(NCCCNc1nccc(-n2cnc3ccccc32)n1)c1ccccc1 [12h] ... label 0
O=S(=O)(NCCNc1nccc(-n2cnc3ccccc32)n1)c1ccc(Br)cc1 [12d] ... label 1
O=S(=O)(NCCNc1nccc(-n2cnc3ccccc32)n1)c1ccccc1 [12a] ... label 1

Data request: Has COc1ccc(S(=O)(=O)NCCCNc2nccc(-n3cnc4ccccc43)n2)cc1 [12m] a recorded activity at 10 µM greater than or equal to 90%?
Data returned: label 1

---

# Tested on: SK-MEL-5
# experiment notes: NCI 60 cell line screen
# Assay type: cell-based, human
# condition details: Homo sapiens; SK-MEL-5, Melanoma; read-out: Percent growth
Listed compounds paired with reported activity at 10 µM
# output: numeric value plus its unit

Some entries whose results are on file:
O=S(=O)(NCCCNc1nccc(-n2cnc3ccccc32)n1)c1ccccc1 [12h] ... 60.2%
O=S(=O)(NCCNc1nccc(-n2cnc3ccccc32)n1)c1ccc(C(F)(F)F)cc1 [12e] ... 8.48%
O=S(=O)(NCCCNc1nccc(-n2cnc3ccccc32)n1)c1cccc2ccccc12 [12n] ... 58.8%
COc1ccc(S(=O)(=O)NCCNc2nccc(-n3cnc4ccccc43)n2)cc1 [12f] ... 92.2%
O=S(=O)(NCCCNc1nccc(-n2cnc3ccccc32)n1)c1ccc(F)cc1 [12i] ... 2.63%

Data request: Give SK-MEL-5 activity at 10 µM for the following compound: O=S(=O)(NCCNc1nccc(-n2cnc3ccccc32)n1)c1ccc(Cl)cc1 [12c]
Data returned: 99.4%

Data request: Answer briefly: activity at 10 µM recorded on SK-MEL-5 for Cc1ccc(S(=O)(=O)NCCNc2nccc(-n3cnc4ccccc43)n2)cc1 [12g]
Data returned: 20.8%

---

# Tested on: MALME-3M
# experiment notes: NCI 60 cell line screen
# Format: cell-based
# condition details: Homo sapiens, Melanoma, read-out: Percent growth
activity at 10 µM for assorted molecules
Express the result in % but write the number alone.

Worked examples, 5 molecules total:
O=S(=O)(NCCNc1nccc(-n2cnc3ccccc32)n1)c1ccccc1 [12a] ... 101
O=S(=O)(NCCCNc1nccc(-n2cnc3ccccc32)n1)c1ccc(Br)cc1 [12k] ... 104
O=S(=O)(NCCCNc1nccc(-n2cnc3ccccc32)n1)c1ccc(C(F)(F)F)cc1 [12l] ... 94
COc1ccc(S(=O)(=O)NCCNc2nccc(-n3cnc4ccccc43)n2)cc1 [12f] ... 91.7
O=S(=O)(NCCCNc1nccc(-n2cnc3ccccc32)n1)c1cccc2ccccc12 [12n] ... 98.4

Data request: Give the reported activity at 10 µM for this molecule. O=S(=O)(NCCCNc1nccc(-n2cnc3ccccc32)n1)c1ccc(Cl)cc1 [12j]
Data returned: 103

Data request: Answer with the recorded activity at 10 µM for the molecule listed here: O=S(=O)(NCCNc1nccc(-n2cnc3ccccc32)n1)c1ccc(Cl)cc1 [12c]
Data returned: 99.5

Data request: Return value of activity at 10 µM for input COc1ccc(S(=O)(=O)NCCCNc2nccc(-n3cnc4ccccc43)n2)cc1 [12m] , no commentary.
Data returned: 107

Data request: Provide measured activity at 10 µM value, entry: O=S(=O)(NCCNc1nccc(-n2cnc3ccccc32)n1)c1ccc(Br)cc1 [12d]
Data returned: 103

Data request: Fill in reported activity at 10 µM for this entry: O=S(=O)(NCCNc1nccc(-n2cnc3ccccc32)n1)c1ccc(C(F)(F)F)cc1 [12e]
Data returned: 71.4

Data request: Recall and state the measured activity at 10 µM for O=S(=O)(NCCCNc1nccc(-n2cnc3ccccc32)n1)c1ccc(F)cc1 [12i] .
Data returned: 86.1

Data request: Recall and state the measured activity at 10 µM for O=S(=O)(NCCCNc1nccc(-n2cnc3ccccc32)n1)c1ccccc1 [12h] .
Data returned: 108

Data request: Return the recorded activity at 10 µM value; entry: O=S(=O)(NCCNc1nccc(-n2cnc3ccccc32)n1)c1ccc(F)cc1 [12b]
Data returned: 93.7

Data request: Kindly indicate its recorded activity at 10 µM. Item: Cc1ccc(S(=O)(=O)NCCNc2nccc(-n3cnc4ccccc43)n2)cc1 [12g]
Data returned: 90.2
